assay.procedure: yeast display, Sf9 membrane polyspecificity reagent, FACS + sequencing; frameworks hold sequencing errors
value.type: polyreactivity (PSR sort gate)

Some solved cases for reference:
QVQLVESGGGLVQEGGSLRFSCAASGFTFDHYAMGWNRQAPGKERELVAVITKSGDSTYYADSVKGRFTISRDNAKNTVYLQMNSQKPEDPAVYYCNARRDYDMDWGQGTQVTVSS	high polyreactivity
QVQLVESGGGFVQAGGSLRLSCAASGFIFAVNAMGWYRQAPGKERELVAAISSSGTTNYADSVKGRFTISRDNAKNTVYLQMNSLKPEDTAVYYCNKRWRDKYPQYDYWGQGTQVTVSS	low polyreactivity
QVQLVESGGGLVQAGGSLRLSCAPSGGTYIYAIGWYRQAPGKERDLVAVITSRSGSTYYADSVKGRFTISRDNAKNTVYLQMISLKPEDTAVYYCAAYTRVRTDPGTSFGYWGQCTQVTVSS	high polyreactivity
QVQLVESGGGLVQAGGSLRLSCAASGSTFWKYAMGWYRQAPGKERELVASIRSGGSTYYADSVKGRFTISRDNAKNNVYLQMNSLKPEDTAVYYCNAMSRTVSHEADDYWGQGTQVTVSS	high polyreactivity
QVQLVESGGGLVQAGGSLRLSCAASGSTFSYYTMPWYRQAPGKERELVAAISRSGANTHYADSVKGRFTISRDNAKITVYLQMNSMKPEDTAVYYCAKVHSGRHYDYWGQGTQVTVSS	high polyreactivity

Query string: Give recorded polyreactivity (PSR sort gate). `QVQLVESGGGLDQAGRSLRLSCAASGSTFPYTAMGWYRQAPGKYRELVAGITDGDGSTSYADSVKGRFTISRDNAKNTVYLQMNCMKPELPAVYYCAARYTYYADEDDYWGQGSQVTVSS`
Result string: low polyreactivity

Query string: Give recorded polyreactivity (PSR sort gate). `QDQLVESGGGLVQEGGSLRLSCAASGSTFPYNAMGWYRQAPGKERELVAAITRRAGRTYYADSVKGRFTISRDNAKNTVYLQLNSLKTEDTAVYYCAKSYQRGVYHYVYWGQVTQVTVSS`
Result string: high polyreactivity

Query string: Give recorded polyreactivity (PSR sort gate). `QVQLVQSGVGLVQAGGSLRLSCAASGSIFSYYVMGWYRQAPGKERELVAAISWSGGSTYYADSVKGRFTISRDNAKNTVYLQMNSLKPEDTAVYYCAAGTYPYYWVQGTQVTVSS`
Result string: low polyreactivity

Query string: Give recorded polyreactivity (PSR sort gate). `QVQLVESGGGLVQAGGSLRLSCAASGFIFGTYAMGWYRQAPGKERELVAAISVGGGSTYYADSVKGRFTISRDNAKNSVYLQMNSLKPEDTAVYYCNALYNDHFSWFSFGYWGQGTQVTVSS`
Result string: low polyreactivity

Query string: Give recorded polyreactivity (PSR sort gate). `QVQLVESGGGLVQPGGSLRLRCAASGFIFWIYAMGWYRQAPGKERELVAAISLSSGSTYYADSVKGRFTISRDNAKNTVYLEMNSLKTEDTAVYYCAARGYSHVASRLYYYWGQGTQVTVSS`
Result string: high polyreactivity

Query string: Give recorded polyreactivity (PSR sort gate). `QVQLVESGGGLVQAGGSLRLSCAASGSTSRGNAMAWYRKSPGKERELVATISQSGGNTFYADSVKGRFTISLDNAKNTVYLQMNSLNPEDTAVYYCAAGRYWFAWYDYWGQGTQVTVSS`
Result string: high polyreactivity
